Reference for the values: paper PMC9706453

target-entity: T1, PavDof2 (Prunus avium (sweet cherry), UniProt A0A6P5T378 1-263)
T1 sequence: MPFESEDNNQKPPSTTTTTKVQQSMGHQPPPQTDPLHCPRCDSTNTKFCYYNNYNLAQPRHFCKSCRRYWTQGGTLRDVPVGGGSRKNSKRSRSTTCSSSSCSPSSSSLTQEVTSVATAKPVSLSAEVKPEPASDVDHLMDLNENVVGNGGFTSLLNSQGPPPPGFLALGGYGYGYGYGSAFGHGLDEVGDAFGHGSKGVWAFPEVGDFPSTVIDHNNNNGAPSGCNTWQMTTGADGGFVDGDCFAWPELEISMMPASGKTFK
measurement-description: EMSA; Light Shift Chemiluminescent EMSA Kit (Beyotime); buffer, salt, pH and temperature not stated
cond: protein: recombinant; tags: His (pET-30a(+)); label: biotin

binder	binding result
PavQRT3 promoter probe (dsDNA) DNA 1: TTGAAAAGTTAGGAAAAAAGTTT DNA 2: AAACTTTTTTCCTAACTTTTCAA	binds
PavXTH26 promoter probe (dsDNA) DNA 1: AACATTCTTTTTGTAAATCAAGTAGTTAAAAGCATTTAC DNA 2: GTAAATGCTTTTAACTACTTGATTTACAAAAAGAATGTT	binds
PavNCED1 promoter probe (Dof site) (dsDNA) DNA 1: CTCAAAAGCTAGTTATATGGAAAAAGGGA DNA 2: TCCCTTTTTCCATATAACTAGCTTTTGAG	binds
